FYI, the data here is from PubChem BioAssay AID179.

- Test system: CEM cells HIV-1 protection, formazan growth assay
- assay_protocol: NCI AIDS Antiviral Assay
- measurement_context: measured here: growth of uninfected CEM cells

# compound, reported_relation, IC50 / µM
records = [
    ("Oc1[nH]c2ccccc2c1N=Nc1nc(-c2ccc(Cl)c(Cl)c2)cs1", "=", 40.7),
    ("COc1ccc(OC2OC(CO)C(OCc3ccccc3)C(OCc3ccccc3)C2OCc2ccccc2)cc1 (stereo not given)", "=", 12),
    ("CCCCCCCC(=O)N1C2CC3CCC2(CS1(=O)=O)C3(C)C (stereo not given)", "=", 19.1),
    ("COc1ccc(/C=C2N=C(/C=C/c3ccccc3)OC\\2=O)cc1OC", "=", 97.7),
    ("COc1cc(C(=O)CBr)c(OC)cc1C", ">", 200),
    ("CCCCCCCCCCCCCCCCCC(=O)OCC(O)CO (stereo not given)", ">", 2.09),
    ("N#Cc1cc([N+](=O)[O-])ccc1NC(=O)/C(=N\\NC(=O)c1ccncc1)C(c1cnc2ccc([N+](=O)[O-])cc2n1)[N+](=O)[O-] (stereo not given)", "=", 8.71),
    ("Cn1c(=O)c2c(nc(N)n2C2OC(CO)C(O)C2O)n(C)c1=O (stereo not given)", ">", 200),
    ("CCOc1ccccc1N1C(=O)C(=O)C(c2nc3ccccc3s2)C(=O)C1=O", ">", 18.2),
    ("CCOP(=O)(/N=C1/C2CCC(C2)C1C)OCC (stereo not given)", ">", 234),
]
